scaled log2 fold change reference
B1: library; numbered along this chain (parent)
chain: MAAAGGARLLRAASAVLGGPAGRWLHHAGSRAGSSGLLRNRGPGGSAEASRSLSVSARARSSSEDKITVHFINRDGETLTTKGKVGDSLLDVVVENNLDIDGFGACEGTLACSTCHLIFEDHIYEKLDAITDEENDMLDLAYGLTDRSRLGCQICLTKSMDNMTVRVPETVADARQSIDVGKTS

- Variants of: B1
- measurementNotes: scaled log2 fold change in cell abundance, elesclomol vs control (0 = silent mean, 1 = nonsense mean) (scaled log2 ratio); higher = higher viability under elesclomol (loss of FDX1 cuproptosis function);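 further: variant abundance is its share of total variant reads in each endpoint sample, from next-generation sequencing of the integrated ORF PCR-amplified out of genomic DNA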
- measurementSetup: with HEK293T FDX1 KO; elesclomol 40 nM; glucose 10 mM; 11 days
valueKind: scaled log2 fold change

| variantDescriptor | valueKind | readoutValue |
| --- | --- | --- |
| E107F | scaled log2 fold change | -1.14 |
| N162T | scaled log2 fold change | 0.362 |
| H116R | scaled log2 fold change | 0.647 |
| Y124M | scaled log2 fold change | -0.153 |
| K158T | scaled log2 fold change | 0.646 |
| L9W | scaled log2 fold change | 0.233 |
| A13F | scaled log2 fold change | 1.34 |
| G181A | scaled log2 fold change | -0.352 |
| C115P | scaled log2 fold change | 1.51 |
| S35Q | scaled log2 fold change | 0.0163 |
| A49I | scaled log2 fold change | 1.22 |
| V94F | scaled log2 fold change | -0.411 |
| S113I | scaled log2 fold change | -0.397 |
| A111D | scaled log2 fold change | 0.497 |
| S63K | scaled log2 fold change | -0.352 |
| G6H | scaled log2 fold change | -1 |
| L9G | scaled log2 fold change | 1.11 |
| A12P | scaled log2 fold change | -0.436 |
| I72C | scaled log2 fold change | -0.937 |
| L117N | scaled log2 fold change | 0.559 |
| C152F | scaled log2 fold change | 2.08 |
| A2L | scaled log2 fold change | -0.056 |
| C115Q | scaled log2 fold change | 1.07 |
| G29P | scaled log2 fold change | -0.6 |
| V85S | scaled log2 fold change | -0.121 |
| R51H | scaled log2 fold change | -0.14 |
| A105K | scaled log2 fold change | 0.106 |
| L38E | scaled log2 fold change | 0.931 |
| A57D | scaled log2 fold change | -0.382 |
| I123T | scaled log2 fold change | 0.679 |
| L98A | scaled log2 fold change | -1.06 |
| Y124R | scaled log2 fold change | -0.258 |
| R11K | scaled log2 fold change | 1.03 |
| M137Y | scaled log2 fold change | 1.02 |
| E169K | scaled log2 fold change | 1.04 |
| V69P | scaled log2 fold change | 0.484 |
| S62K | scaled log2 fold change | 1.13 |
| K158H | scaled log2 fold change | -0.704 |
| S56Q | scaled log2 fold change | 0.782 |
| S159H | scaled log2 fold change | 0.214 |
| R11L | scaled log2 fold change | 0.444 |
| E125F | scaled log2 fold change | 0.00284 |
| E48N | scaled log2 fold change | 1.08 |
| K84N | scaled log2 fold change | 0.28 |
| F119M | scaled log2 fold change | 0.132 |
| L25W | scaled log2 fold change | 0.019 |

Where do the numbers come from? From the supplement of paper PMC12855868.
